Test: Oral bioavailability in rat at 5 mg/kg administered as single dose
Type: ADME, organism-based
Settings: in vivo
Reported property: bioavailability (%)
Give the value, in units of %, as a plain number.

Input: Output measured bioavailability for this item: CCc1nc(C)cn2nc(-c3cc(=O)n4cc(C5CCN(C)CC5)cc(C)c4n3)cc12
Output: 100

---

Experiment: AUC (0 to 24 hrs) in SMA adult C/C allele mouse model at 1 mg/kg, po dosed once daily for 10 days
Type: ADME, organism-based
Set-up: dose 1 mg/kg, time < 24 hr, route oral
Settings: in vivo
Reported property: AUC at 24 h (ng·h/mL)
Supply the numeric figure in ng·h/mL, leaving out any unit text.

Input: Input Cc1cn2nc(-c3cc(=O)n4cc(N5CCNC6(CC6)C5)ccc4n3)cc(C)c2n1 , output reported AUC at 24 h.
Output: 9000

---

Experiment: Oral bioavailability in cynomolgus monkey at 1.3 mg/kg administered as single dose
Type: ADME, organism-based, Macaca fascicularis
Details: in vivo
Reported property: bioavailability (%)
Report the value in % with no unit label.

Input: Recall and state the measured bioavailability for CCc1nc(C)cn2nc(-c3cc(=O)n4cc(C5CCN(C)CC5)cc(C)c4n3)cc12 .
Output: 52

---

Experiment: Dark toxicity in mouse 3T3 cells assessed as decrease in cell viability by neutral red uptake assay
Assay type: cell-based, NIH3T3
Reported property: IC50

Input: Return IC50 (reported value) for this compound: CCc1nc(C)cn2nc(-c3cc(=O)n4cc(C5CCN(C)CC5)cc(C)c4n3)cc12
Output: > 10 µM

---

Test: Tmax in human
Type: ADME
Reported property: Tmax

Input: Kindly indicate its recorded Tmax. Item: CCc1nc(C)cn2nc(-c3cc(=O)n4cc(C5CCN(C)CC5)cc(C)c4n3)cc12
Output: 5 to 8 h

---

Test: Terminal half life in cynomolgus monkey
Format: ADME, Macaca fascicularis
Conditions: in vivo, read-out: beta t1/2 (converted)
Reported property: half-life (h)
The answer is to be given in h; state only the numeric part.

Input: Give the measured half-life for CCc1nc(C)cn2nc(-c3cc(=O)n4cc(C5CCN(C)CC5)cc(C)c4n3)cc12
Output: 42

---

Test: Volume of distribution at steady state in cynomolgus monkey at 0.1 mg/kg, iv administered as single dose
Assay type: ADME, organism-based, Macaca fascicularis
Conditions: in vivo, read-out: Vdss
Reported property: Vd (L/kg)
Your answer is read as L/kg, so omit the unit and give the number.

Input: Return Vd (reported value) for this compound: Cc1cn2nc(-c3cc(=O)n4cc(N5CCNC6(CC6)C5)ccc4n3)cc(C)c2n1
Output: 2

---

Test: physchem
Reported property: pKa
Please give the numeric answer without any surrounding text.

Input: Supply recorded pKa for CCc1nc(C)cn2cc(-c3cc(=O)n4cc(N5CCC(N6CCC6)CC5)cc(C)c4n3)cc12 here.
Output: 8.9

Input: // fetch pKa given entry Cc1cn2cc(-c3cc(=O)n4cc(N5CCC(N6CCCC6)CC5)ccc4n3)cc(C(F)(F)F)c2n1
Output: 9.3

Input: // fetch pKa given entry CCc1nc(C)cn2nc(-c3cc(=O)n4cc(N5CCN6CCC[C@@H]6C5)ccc4n3)cc12
Output: 7.6

---

Answer each item with its documented EC50.
Experiment: Effect on human FOXM1a mRNA splicing expressed in human SMA-derived fibroblasts by RT-qPCR analysis
Type: ADME

Input: Answer with the recorded EC50 of CCc1nc(C)cn2nc(-c3cc(=O)n4cc(C5CCN(C)CC5)cc(C)c4n3)cc12 only.
Output: 247 nM

Input: Consider the compound Cc1cn2nc(-c3cc(=O)n4cc(N5CCNC6(CC6)C5)ccc4n3)cc(C)c2n1 . State its measured EC50.
Output: 67 nM

---

Experiment: Efflux ratio of permeability in human SMA-derived fibroblasts
Type: ADME, cell-based, Fibroblast
Settings: not told
Kindly supply the reported efflux ratio values for the records listed here.
I only need the number, thanks.

Input: Read the entry CCc1nc(C)cn2nc(-c3cc(=O)n4cc(C5CCN(C)CC5)cc(C)c4n3)cc12 and write its reported efflux ratio.
Output: 2

Input: Please report efflux ratio for the following compound: CCc1nc(C)cn2nc(C3=CC(=O)N4C=C(C5CCNCC5)C=C(C)C4N3)cc12 (stereo not drawn)
Output: 18.7

Input: State, in one line, measured efflux ratio of Cc1cn2nc(-c3cc(=O)n4cc(N5CCNC6(CC6)C5)ccc4n3)cc(C)c2n1
Output: 2.2

Ref: ChEMBL document CHEMBL4382198
